Data provenance: patent US8653071B2

Ki values, listed per item
Target: Nicotinic Acetylcholine α4β2 Receptor (UniProt P09483+P12390)
Assay: Binding assay for human or rat nicotinic acetylcholine α4β2 receptor ([3H]Cytisine displacement)
Settings: [3H]Cytisine 2.5 nM; rat brain frontal cortex or recombinant human receptor in CHO cells (not specified which); read-out: Ki
Where a name gives a salt, the structure may show the parent alone.

MOLECULE | Ki
NCC1CC2CC2N1c1ccc(Cl)nc1 (centres unmarked) [Example 25, fumarate] | 6.9 nM
CNCC1CC2CC2N1c1cncc(C)c1 (centres unmarked) [Example 27] | 253 nM
CNCC1CC2CC2N1c1cncnc1.O=C(O)/C=C/C(=O)O (centres unmarked) [Example 21, fumarate] | 465 nM
NCC1CC2CC2N1C(=O)c1cncc(Br)c1 (centres unmarked) [Example 36, tartrate] | 17.8 nM
CNCC1CC2CC2N1C(=O)c1cc2cccc(Br)c2o1 (centres unmarked) [Example 33, tartrate] | 3000 nM
CNCC1CC2CC2N1C(=O)c1ccco1 (single isomer, unassigned) [Example 3] | 41.7 nM
Brc1cncc(N2C(CN3CCNCC3)CC3CC32)c1 (centres unmarked) [Example 8] | 610 nM
NCC1CC2CC2N1C(=O)c1cc2ccccc2[nH]1 (centres unmarked) [Example 34] | 55 nM
CNCC1CC2CC2N1c1cncc(OC(C)C)c1 (centres unmarked) [Example 15] | 383 nM
NCC1CC2CC2N1C(=O)c1ccncc1 (centres unmarked) [Example 39] | 109 nM
CNCC1CC2CC2N1c1cccnc1.Cl (centres unmarked) [Example 4, hydrochloride] | 59.4 nM
CNCC1CC2CC2N1C(=O)c1cc2ccccc2o1 (centres unmarked) [Example 32, tartrate] | 38.3 nM
NCC1CC2CC2N1C(=O)c1ccco1.O=C(O)C(O)C(O)C(=O)O (centres unmarked) [Example 35, tartrate] | 38.7 nM
NCC1CC2CC2N1c1ccc(C(F)(F)F)nc1 (centres unmarked) [Example 24, fumarate] | 681 nM
CNCC1CC2CC2N1c1cncc(Br)c1 (centres unmarked) [Example 11] | 46.4 nM
NCC1CC2CC2N1C(=O)c1ccccn1 (centres unmarked) [Example 37, tartrate] | 11.6 nM
CCNCC1CC2CC2N1c1cncc(Br)c1 (centres unmarked) [Example 5] | 700 nM
NCC1CC2CC2N1c1cncc(Sc2ccccc2)c1 (centres unmarked) [Example 16, fumarate] | 451 nM
CNCC1CC2CC2N1c1cncc(OC)c1 (centres unmarked) [Example 14, fumarate] | 179 nM
NCC1CC2CC2N1c1cncc(Cl)c1.O=C(O)/C=C/C(=O)O (centres unmarked) [Example 13, fumarate] | 3.5 nM

----------
Assay: Rodent pharmacokinetic study
Assay type: in vivo
Settings: Wistar, in vivo; Wister rat/Male, 5 mg/kg, Intravenous
Where a name gives a salt, the structure may show the parent alone.

MOLECULE | Cmax, ng/mL
NCC1CC2CC2N1c1cccnc1 (stereo not shown) [Example 18, fumarate] | 701
CNCC1CC2CC2N1c1cncc(Br)c1 (stereo not shown) | 1440
CNCC1CC2CC2N1c1cccnc1.Cl (stereo not shown) | 956
NCC1CC2CC2N1c1cncc(Cl)c1.O=C(O)/C=C/C(=O)O (stereo not shown) | 836

----------
Test: Rodent pharmacokinetic study
Assay type: in vivo
Conditions: Wistar, in vivo; Wister rat/Male, 5 mg/kg, Intravenous
Structures can show the parent of a compound that is named as a salt.
// Tmax lookup, one value per entry

COMPOUND | Tmax (min)
CNCC1CC2CC2N1c1cncc(Br)c1 (stereo not shown) | 4.8
CNCC1CC2CC2N1c1cccnc1.Cl (stereo not shown) | 4.8
NCC1CC2CC2N1c1cncc(Cl)c1.O=C(O)/C=C/C(=O)O (stereo not shown) | 4.8
NCC1CC2CC2N1c1cccnc1 (stereo not shown) [Example 18, fumarate] | 22.8
